# assayed target: BIR3 domain of human XIAP (Homo sapiens, UniProt P98170)
# Construct: BIR3 domain of human XIAP (residues 252-350) fused to a His-tag; His-tag (cleaved yes); made in house; host or cells: Escherichia coli
# Sequence (P98170 252-350): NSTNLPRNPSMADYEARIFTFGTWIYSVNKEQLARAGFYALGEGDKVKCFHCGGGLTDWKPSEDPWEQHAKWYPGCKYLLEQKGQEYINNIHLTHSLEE
# experiment summary: XIAP in vitro competitive displacement binding assay (fluorescence polarization)
# assay setup: 1 h, PI at 0.04 μM; read-out: Xiap IC50 or PI μM (PI)
Structures can show the parent of a compound that is named as a salt.
experimental endpoint: inhibition at 0.04 µM (%)
// note: answer is a bare numeric in %

C[C@@H]1CN(CC(=O)N2CC(C)(C)c3ncc(C(O)c4cccc(F)c4)cc32)[C@@H](CN2[C@H](C)COC[C@H]2C)CN1 (single isomer, unassigned) [Example 105, dihydrochloride]	60
COC[C@@H]1COCCN1C[C@H]1CN[C@H](C)CN1CC(=O)N1CC(C)(C)c2ncc(Cc3ccc(F)cc3)cc21 [Example 1, dihydrochloride]	35
C[C@@H]1CN(CC(=O)N2CC(C)(C)c3cnc(Cc4ccc(F)cc4F)cc32)[C@@H](CN2CCOC[C@]2(C)CO)CN1 (single isomer, unassigned) [Example 66, dihydrochloride]	78

Provide inhibition at 0.04 µM, tested on BIR3 domain of human XIAP (Homo sapiens, UniProt P98170), for C[C@@H]1CN(CC(=O)N2CC(C)(C)c3cnc(Cc4ccc(F)cc4)cc32)[C@@H](CN2[C@H](C)COC[C@H]2C)CN1 [Example 55, dihydrochloride] .
59

###

# assayed target: BIR3 domain of human XIAP (Homo sapiens)
# Construct: BIR3 domain of human XIAP (residues 252-350) fused to a His-tag; His-tag (cleaved yes); made in house; host or cells: Escherichia coli
# experiment summary: XIAP in vitro competitive displacement binding assay (fluorescence polarization)
# assay setup: 1 h, PI at 0.04 μM; read-out: Xiap IC50 or PI μM (PI)
Counter-ions that a name gives are not always drawn.
inhibition at 0.04 µM vs 40%: at or above is class 1, below is class 0.

Completed entries (count: 4):
C[C@@H]1CN(CC(=O)N2CC(C)(C)c3ncc(Cc4ccc(F)cc4)cc32)[C@@H](CN2C[C@H](C)NC(=O)[C@H]2C)CN1 [Example 48, dihydrochloride]	class 1
CC(=O)N1CCN(C[C@H]2CN[C@H](C)CN2CC(=O)N2CC(C)(C)c3ncc(Cc4ccc(F)cc4)cc32)[C@H](C)C1 [Example 52, dihydrochloride]	class 1
C[C@@H]1CN(CC(=O)N2CC(C)(C)c3ncc(Cc4ccc(F)cc4)cc32)[C@@H](CN2CCCC(F)(F)C2)CN1 [Example 3, dihydrochloride]	class 0
C[C@@H]1CN(CC(=O)N2CC(C)(C)c3ncc(Cc4ccc(F)cc4)cc32)[C@@H](CN2CC3CCC(C2)O3)CN1 [Example 18, dihydrochloride]	class 0

Entry CCCC(F)(F)c1cc2c(cn1)C(C)(C)CN2C(=O)CN1C[C@@H](C)NC[C@@H]1CN1CCOC[C@]1(C)CO (single isomer, unassigned) [Example 69, dihydrochloride] : is its inhibition at 0.04 µM no less than 40%?
class 1

Entry `C[C@@H]1CN(CC(=O)N2CC(C)(C)c3ncc(Cc4ccc(F)cc4)cc32)[C@@H](CN2CCNC(=O)[C@H]2C)CN1` : is its inhibition at 0.04 µM no less than 40%?
class 1

Entry CCC(F)(F)c1cnc2c(c1)N(C(=O)CN1C[C@@H](C)NC[C@@H]1CN1[C@H](C)COC[C@H]1C)CC2(C)C [Example 43, dihydrochloride] : is its inhibition at 0.04 µM no less than 40%?
class 1

Entry COC[C@]1(C)COCCN1C[C@H]1CN[C@H](C)CN1CC(=O)N1CC(C)(C)c2cnc(Cc3ccc(F)cc3F)cc21 [Example 97, dihydrochloride] : is its inhibition at 0.04 µM no less than 40%?
class 1

Entry C[C@@H]1CN(CC(=O)N2CC(C)(C)c3ccc(Cc4ccc(F)cc4)cc32)[C@@H](CN2[C@H](C)COC[C@H]2C)CN1 [Example 49, dihydrochloride] : is its inhibition at 0.04 µM no less than 40%?
class 1

Entry COCC1(C)COCCN1C[C@H]1CN[C@H](C)CN1CC(=O)N1CC(C)(C)c2ncc(Cc3ccc(F)cc3)cc21 (single isomer, unassigned) [Example 100, dihydrochloride] : is its inhibition at 0.04 µM no less than 40%?
class 1

###

# assayed target: BIR3 domain of human XIAP (Homo sapiens, UniProt P98170)
# Construct: BIR3 domain of human XIAP (residues 252-350) fused to a His-tag; His-tag (cleaved yes); made in house; host or cells: Escherichia coli
# experiment summary: XIAP in vitro competitive displacement binding assay (fluorescence polarization)
# assay setup: 1 h, PI at 0.04 μM; read-out: Xiap IC50 or PI μM (PI)
Counter-ions that a name gives are not always drawn.
experimental endpoint: inhibition at 0.04 µM (%)
// note: answer is a bare numeric in %

CCCC(F)(F)c1cc2c(cn1)C(C)(C)CN2C(=O)CN1C[C@@H](C)NC[C@@H]1CN1[C@H](C)COC[C@H]1C [Example 44, dihydrochloride]	78
CCCC(F)(F)c1cc2c(cn1)C(C)(C)CN2C(=O)CN1C[C@@H](C)NC[C@@H]1CN1CCN(C(C)=O)C[C@H]1C [Example 60, dihydrochloride]	74
C[C@@H]1CN(CC(=O)N2CC(C)(C)c3ncc(C(O)c4c(F)cccc4F)cc32)[C@@H](CN2[C@H](C)COC[C@H]2C)CN1 (single isomer, unassigned) [Example 117, dihydrochloride]	41
C[C@@H]1CN(CC(=O)N2CC(C)(C)c3ncc(Cc4ccc(F)cc4)cc32)[C@@H](CN2CCOC[C@H]2CF)CN1 [Example 19, dihydrochloride]	43

Query compound follows.
Provide only the value of recorded inhibition at 0.04 µM for CC(=O)N1CCN(C[C@H]2CN[C@H](C)CN2CC(=O)N2CC(C)(C)c3cnc(Cc4ccc(F)cc4)cc32)[C@H](C)C1 [Example 56, dihydrochloride]
70

###

# assayed target: BIR3 domain of human XIAP (Homo sapiens, UniProt P98170)
# Construct: BIR3 domain of human XIAP (residues 252-350) fused to a His-tag; His-tag (cleaved yes); made in house; host or cells: Escherichia coli
# experiment summary: XIAP in vitro competitive displacement binding assay (fluorescence polarization)
# assay setup: 1 h, PI at 0.04 μM; read-out: Xiap IC50 or PI μM (PI)
Counter-ions that a name gives are not always drawn.
experimental endpoint: inhibition at 0.04 µM (%)
// note: answer is a bare numeric in %

Look over these answered cases.
CCCC(O)c1cnc2c(c1)N(C(=O)CN1C[C@@H](C)NC[C@@H]1CN1[C@H](C)COC[C@H]1C)CC2(C)C (single isomer, unassigned) [Example 101, dihydrochloride]	47
CC1COCCN1C[C@H]1CN[C@H](C)CN1CC(=O)N1CC(C)(C)c2ccc(Cc3ccc(F)cc3)cc21 (some centres unmarked) [Example 45, dihydrochloride]	52
C[C@@H]1CN(CC(=O)N2CC(C)(C)c3ncc(Cc4ccc(F)cc4)cc32)[C@@H](CN2CCN(c3ncccn3)C[C@H]2C)CN1 [Example 53, dihydrochloride]	59

Provide inhibition at 0.04 µM, tested on BIR3 domain of human XIAP (Homo sapiens, UniProt P98170), for C[C@@H]1CN(CC(=O)N2CC(C)(C)c3ncc(Cc4ccc(F)cc4)cc32)[C@@H](CN2CCOC[C@]2(C)CO)CN1 [Example 50, dihydrochloride] .
44

Provide inhibition at 0.04 µM, tested on BIR3 domain of human XIAP (Homo sapiens, UniProt P98170), for COC[C@@H]1COCCN1C[C@H]1CN[C@H](C)CN1CC(=O)N1CC(C)(C)c2cnc(Cc3ccc(F)cc3)cc21 [Example 96, dihydrochloride] .
49

Provide inhibition at 0.04 µM, tested on BIR3 domain of human XIAP (Homo sapiens, UniProt P98170), for CCCC(F)(F)c1cc2c(cn1)C(C)(C)CN2C(=O)CN1C[C@@H](C)NC[C@@H]1CN1CCOC[C@@]1(C)CO (single isomer, unassigned) [Example 68, dihydrochloride] .
69

Provide inhibition at 0.04 µM, tested on BIR3 domain of human XIAP (Homo sapiens, UniProt P98170), for C[C@@H]1CN(CC(=O)N2CC(C)(C)c3ncc(Cc4ccc(F)cc4)cc32)[C@@H](CN2CCN(C)C(=O)[C@H]2C)CN1 [Example 34, dihydrochloride] .
42

Provide inhibition at 0.04 µM, tested on BIR3 domain of human XIAP (Homo sapiens, UniProt P98170), for C[C@@H]1CN(CC(=O)N2CC(C)(C)c3cnc(Cc4ccc(F)cc4)cc32)[C@@H](CN2CCOC[C@@]2(C)CO)CN1 [Example 62, dihydrochloride] .
60

Provide inhibition at 0.04 µM, tested on BIR3 domain of human XIAP (Homo sapiens, UniProt P98170), for C[C@@H]1CN(CC(=O)N2CC(C)(C)c3ncc(C(O)c4ccccc4F)cc32)[C@@H](CN2[C@H](C)COC[C@H]2C)CN1 (single isomer, unassigned) [Example 107, dihydrochloride] .
57

Provide inhibition at 0.04 µM, tested on BIR3 domain of human XIAP (Homo sapiens, UniProt P98170), for C[C@@H]1CN(CC(=O)N2CC(C)(C)c3cc(C#N)c(Cc4ccc(F)cc4)cc32)[C@@H](CN2[C@H](C)COC[C@H]2C)CN1 [Example 92, dihydrochloride] .
54

Provide inhibition at 0.04 µM, tested on BIR3 domain of human XIAP (Homo sapiens, UniProt P98170), for C[C@@H]1CN(CC(=O)N2CC(C)(C)c3ncc(Cc4ccc(F)cc4)cc32)[C@@H](CN2CCNC(=O)C2)CN1 [Example 42, dihydrochloride] .
44
